test: Clinical Study 3: plasma/serum AZT by radioimmunoassay, AZT alone then AZT + inosine + INPX; format: in vivo, AIDS patients; settings: read-out: mean nadir level of AZT; 100 mg AZT with 1 gm inosine and 1 gm INPX every 6 hrs, day 14; standard deviation 0.26 μM, range 0.11 to 0.82 μM
ENDPOINT_NAME: concentration (nM)
Answers are plain numbers, in nM.

Please fill in: concentration reported for Cc1cn([C@H]2C[C@H](N=[N+]=[N-])[C@@H](CO)O2)c(=O)[nH]c1=O = 510

----------
test: Clinical Study 1: plasma/serum AZT by radioimmunoassay, AZT alone then AZT + inosiplex; format: in vivo, AIDS patients; details: human, serum, po, 100 mg; read-out: Serum half-life of the elimination phase (T1/2)
ENDPOINT_NAME: half-life (min)
One number for each entry, in min.

Documented half-life of Cc1cn([C@H]2C[C@H](N=[N+]=[N-])[C@@H](CO)O2)c(=O)[nH]c1=O : 44

----------
experiment: Clinical Study 3: plasma/serum AZT by radioimmunoassay, AZT alone then AZT + inosine + INPX; type: in vivo, AIDS patients; conditions: human, plasma, po, 100 mg, mean peak plasma level of AZT, 100 mg AZT with 1 gm inosine and 1 gm INPX every 6 hrs, day 14; standard deviation 1.3 μM, range 0.15 to 4.2 μM
ENDPOINT_NAME: Cmax (nM)
Answers are plain numbers, in nM.

Record Cc1cn([C@H]2C[C@H](N=[N+]=[N-])[C@@H](CO)O2)c(=O)[nH]c1=O . Reported Cmax: 2760
